# Test system: CCRIS mutagenicity, Ames/micronucleus/aberration tests
# TEST DETAILS: CCRIS mutagenicity studies
# CONDITION DESCRIPTION: Test System: E. COLI; Strain/Indicator: WP2 UVRA; Metabolic Activation: RAT, LIVER, S-9, AROCLOR 1254; Method: STANDARD PLATE
# From the text: The CCRIS database contains chemical records with carcinogenicity, mutagenicity, tumor promotion, and tumor inhibition test results. It was developed by the National Cancer Institute (NCI). Data are derived from studies cited in primary journals, current awareness tools, NCI reports, and other sources. Test results have been reviewed by experts in carcinogenesis and mutagenesis. CCRIS provides historical information from the years 1985 - 2011. It is no longer updated. […]
The source made the active and inactive calls. How the calls were made is not given here.
Outcome codes: active, inactive

INSERT INTO assay_data (sample_smiles, test_system, label) VALUES
  ('O=C(O)CN(CCN(CC(=O)O)CC(=O)O)CC(=O)O', 'CCRIS mutagenicity, Ames/micronucleus/aberration tests', 'inactive'),
  ('CNC(=O)ON=CC(C)(C)SC', 'CCRIS mutagenicity, Ames/micronucleus/aberration tests', 'inactive'),
  ('S=C(NC1CCCCC1)NC1CCCCC1', 'CCRIS mutagenicity, Ames/micronucleus/aberration tests', 'inactive'),
  ('O=CNc1nc(-c2ccc([N+](=O)[O-])o2)cs1', 'CCRIS mutagenicity, Ames/micronucleus/aberration tests', 'active'),
  ('CN(C)C(=O)c1nc(CNC(=O)CN)n(-c2ccc(Cl)cc2C(=O)c2ccccc2Cl)n1', 'CCRIS mutagenicity, Ames/micronucleus/aberration tests', 'inactive');

====

# Test system: CCRIS mutagenicity, Ames/micronucleus/aberration tests
# TEST DETAILS: CCRIS mutagenicity studies
# CONDITION DESCRIPTION: Test System: AMES SALMONELLA TYPHIMURIUM; Strain/Indicator: TA98; Method: STANDARD PLATE
# Source text: The CCRIS database contains chemical records with carcinogenicity, mutagenicity, tumor promotion, and tumor inhibition test results. It was developed by the National Cancer Institute (NCI). Data are derived from studies cited in primary journals, current awareness tools, NCI reports, and other sources. Test results have been reviewed by experts in carcinogenesis and mutagenesis. CCRIS provides historical information from the years 1985 - 2011. It is no longer updated. […]
The source made the active and inactive calls. The rule behind the calls is not given here.
Outcome codes: YES = active, NO = inactive

INSERT INTO assay_data (molecule, label) VALUES
  ('CCc1c2ccccc2c(C)c2c1ccc1ccccc12', 'NO'),
  ('C=C(C)C1CCC(=C)C2C3=C(C[C@H](C)C3=O)C(=O)C(C)=C[C@@H]12 (some centres undefined)', 'NO'),
  ('CCc1c2ccccc2cc2c1ccc1ccccc12', 'YES'),
  ('CCc1c2ccccc2c(C)c2ccc3ccccc3c12', 'NO');

====

# System: CCRIS mutagenicity, Ames/micronucleus/aberration tests
# TEST DETAILS: CCRIS mutagenicity studies
# CONDITION DESCRIPTION: Test System: AMES SALMONELLA TYPHIMURIUM; Strain/Indicator: TA98; Metabolic Activation: HAMSTER, LIVER, S-9, AROCLOR 1254; Method: PREINCUBATION
The source made the active and inactive calls. How the calls were made is not given here.
Outcome codes: yes for active, no for inactive

INSERT INTO results (compound, label) VALUES
  ('CC1(C)S[C@@H]2[C@H](NC(=O)[C@H](N)c3ccccc3)C(=O)N2[C@H]1C(=O)O', 'no'),
  ('Oc1cc(Cl)ccc1Cl', 'no'),
  ('CC[C@H]1OC(=O)[C@H](C)[C@@H](O[C@H]2C[C@@](C)(OC)[C@@H](O)[C@H](C)O2)[C@H](C)[C@@H](O[C@@H]2O[C@H](C)C[C@H](N(C)C)[C@H]2O)[C@](C)(O)C[C@@H](C)C(=O)[C@H](C)[C@@H](O)[C@]1(C)O', 'no'),
  ('CC(O)CO (stereo unspecified)', 'no'),
  ('Clc1ccccc1', 'no'),
  ('COc1ccc(O)cc1', 'no'),
  ('C1CC2OC2CC1C1CO1 (stereo unspecified)', 'yes'),
  ('CN[C@@H]1[C@H](O[C@H]2[C@H](O[C@H]3[C@H](O)[C@@H](O)[C@H](N=C(N)N)[C@@H](O)[C@@H]3N=C(N)N)O[C@@H](C)[C@]2(O)C=O)O[C@@H](CO)[C@H](O)[C@H]1O', 'no'),
  ('O=NN1CCCCC1', 'yes'),
  ('O=[N+]([O-])c1cc([As](=O)(O)O)ccc1O', 'no'),
  ('Nc1ccc(-c2ccc(N)c(Cl)c2)cc1Cl', 'yes');
